This collection of values is drawn from patent US20090098124A1.

Target: T1, soluble monomeric FcγRIIIA (extracellular region joined to linker-AVITAG), allele not stated (human, UniProt P08637 17-208)
T1 construct: extracellular domain; also called FcRIIIA; CD16A; not shown: linker-AVITAG
T1 sequence (P08637 17-208): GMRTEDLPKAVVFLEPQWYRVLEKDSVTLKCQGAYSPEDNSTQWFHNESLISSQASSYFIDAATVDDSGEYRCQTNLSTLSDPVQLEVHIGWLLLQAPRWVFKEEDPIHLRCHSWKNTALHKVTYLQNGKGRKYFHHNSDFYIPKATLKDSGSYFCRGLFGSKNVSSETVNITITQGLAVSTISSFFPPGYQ
Assay: ELISA
Measured Binding to FcγRIIIA (ELISA) of individual entries
Quick note: give the figure in fold increase, leave out the unit.

Binder	Unit label	Binding to FcγRIIIA (ELISA)
IgG1 Fc mutant D280E, S354F, A431D, L441I (antibody) heavy: ASTKGPSVFPLAPSSKSTSGGTAALGCLVKDYFPEPVTVSWNSGALTSGVHTFPAVLQSSGLYSLSSVVTVPSSSLGTQTYICNVNHKPSNTKVDKKVEPKSCDKTHTCPPCPAPELLGGPSVFLFPPKPKDTLMISRTPEVTCVVVDVSHEDPEVKFNWYVEGVEVHNAKTKPREEQYNSTYRVVSVLTVLHQDWLNGKEYKCKVSNKALPAPIEKTISKAKGQPREPQVYTLPPFRDELTKNQVSLTCLVKGFYPSDIAVEWESNGQPENNYKTTPPVLDSDGSFFLYSKLTVDKSRWQQGNVFSCSVMHEDLHNHYTQKSISLSPGK	fold increase	3

Would you kindly look at the next entry?
Kindly note the recorded Binding to FcγRIIIA (ELISA) for IgG1 Fc mutant P247L, A330T, S440G (antibody) heavy: ASTKGPSVFPLAPSSKSTSGGTAALGCLVKDYFPEPVTVSWNSGALTSGVHTFPAVLQSSGLYSLSSVVTVPSSSLGTQTYICNVNHKPSNTKVDKKVEPKSCDKTHTCPPCPAPELLGGPSVFLFPPKLKDTLMISRTPEVTCVVVDVSHEDPEVKFNWYVDGVEVHNAKTKPREEQYNSTYRVVSVLTVLHQDWLNGKEYKCKVSNKALPTPIEKTISKAKGQPREPQVYTLPPSRDELTKNQVSLTCLVKGFYPSDIAVEWESNGQPENNYKTTPPVLDSDGSFFLYSKLTVDKSRWQQGNVFSCSVMHEALHNHYTQKGLSLSPGK , which is 0.75
